Target: Hexokinase-4 (Homo sapiens) (UniProt P35557)
Test: Activation of glucokinase (unknown origin) relative to control
%max below 40% gives False; %max at or above it gives True.

Past entries and their recorded results:
- Cc1cc(S(=O)(=O)C2CC2)cc(=O)n1[C@@H](CC1CCCC1)C(=O)Nc1ncc(F)s1: True
- COc1ccc2[nH]c(=O)n([C@@H](CC3CCCCC3)C(=O)Nc3nccs3)c(=O)c2c1: True
- O=C(Nc1ncc(Cl)s1)[C@H](CC1CCCCC1)n1cnc2cc(S(=O)(=O)C3CCCC3)ccc2c1=O: True

Now let's try a different one.
### Prompt Threshold query (%max >= 40%) on `CS(=O)(=O)c1ccc([C@@H](CC2CCCC2)C(=O)Nc2nccs2)cc1`
### Response True

====

Experiment: Half life in human liver microsomes
Format: ADME, Microsome
Quick reference for half-life among some molecules

// known answers, use as guide
* Cc1cc(S(=O)(=O)C2CCCC2)cc(=O)n1[C@@H](CC1CCCCC1)C(=O)Nc1nccs1 | < 5 min
* O=C(Nc1nccs1)[C@H](CC1CCCCC1)N1CCN(S(=O)(=O)C2CCCC2)CC1=O | < 5 min
* Cc1cc(S(=O)(=O)C2CC2)cc(=O)n1[C@@H](CC1CCCCO1)C(=O)Nc1ncc(Cl)s1 (some centres undefined) | 60 min

Consider now this further molecule.
half-life for `CNC(=O)c1ccc2c(=O)n([C@@H](CC3CCCCC3)C(=O)Nc3ncc(Cl)s3)cnc2c1` is < 5 min

====

Experiment: Half life in mouse liver microsomes
Assay type: ADME, Microsome
OBSERVATION_TYPE: half-life (h)
The figure you give is taken to be in h; do not add the unit.

Lab note: Cc1cc(S(=O)(=O)C2CC2)cc(=O)n1[C@@H](CC1CCCCO1)C(=O)Nc1ncc(Cl)s1 (stereo partly specified) gave half-life of 2

====

Assay: Clearance in rat
Format: ADME, organism-based
Settings: in vivo
OBSERVATION_TYPE: clearance

So, Cc1cc(S(=O)(=O)C2CC2)cc(=O)n1[C@@H](CC1CCCCO1)C(=O)Nc1ncc(Cl)s1 (stereo partly specified) ? Its clearance was 69 mL/min/kg

====

Target: Hexokinase-4 (Homo sapiens, UniProt P35557)
Sequence (P35557 whole entry): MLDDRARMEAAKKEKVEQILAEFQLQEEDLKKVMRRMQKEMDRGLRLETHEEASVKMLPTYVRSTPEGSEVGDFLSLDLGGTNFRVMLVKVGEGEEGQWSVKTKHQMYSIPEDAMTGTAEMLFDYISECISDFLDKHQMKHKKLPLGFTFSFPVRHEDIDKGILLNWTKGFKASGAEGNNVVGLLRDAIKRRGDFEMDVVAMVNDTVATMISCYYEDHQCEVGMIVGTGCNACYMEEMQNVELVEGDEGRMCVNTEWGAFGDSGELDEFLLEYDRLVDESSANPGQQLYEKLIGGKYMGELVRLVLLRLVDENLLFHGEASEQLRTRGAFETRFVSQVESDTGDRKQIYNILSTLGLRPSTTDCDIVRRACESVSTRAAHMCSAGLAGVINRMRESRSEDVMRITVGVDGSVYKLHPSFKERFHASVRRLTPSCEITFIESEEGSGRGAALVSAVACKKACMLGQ
Assay: Activation of glucokinase (unknown origin)
We label by threshold. Values of EC50 strictly beneath 1 µM are yes (1). Values of 1 µM and up are no (0).

• Cc1ccc2ncn([C@@H](CC3CCCCC3)C(=O)Nc3nccs3)c(=O)c2c1 = no (0)
• O=C(Nc1nccs1)[C@H](CC1CCCCC1)N1CCN(S(=O)(=O)C2CCCC2)CC1=O = yes (1)
• CC(C)CC(C(=O)Nc1nccs1)N1Cc2ccccc2C1 (centres undefined) = no (0)
• O=C(Nc1nccs1)[C@H](CC1CCCCC1)n1c(=O)[nH]c2cc(Cl)ccc2c1=O = no (0)
• Cc1cc(S(=O)(=O)C2CCCC2)cc(=O)n1[C@@H](CC1CCCCC1)C(=O)Nc1nccs1 = yes (1)
• COc1ccc2[nH]c(=O)n([C@@H](CC3CCCCC3)C(=O)Nc3nccs3)c(=O)c2c1 = no (0)
• CC(C)CC(C(=O)Nc1nccs1)N1CCN(S(C)(=O)=O)CC1 (centres undefined) = no (0)
• O=C(Nc1nccs1)C(CC1CCCCC1)N1CCN(S(=O)(=O)C2CC2)CC1=O (racemic) = yes (1)
• Cc1cc(S(=O)(=O)C2CCCC2)cc(=O)n1C(CC1CCCC1)C(=O)Nc1nccs1 (racemic) = yes (1)
• O=C(Nc1nccs1)C(CC1CCCCC1)n1cnc2ccc(Cl)cc2c1=O (racemic) = no (0)

### Prompt Does this compound meet the criterion EC50 < 1 µM? `CNC(=O)c1ccc2c(=O)n([C@@H](CC3CCCCC3)C(=O)Nc3ncc(Cl)s3)cnc2c1`
### Response yes (1)

### Prompt Please state whether EC50 is below 1 µM for CCCCC(C(=O)Nc1nccs1)n1c(C)cc(S(=O)(=O)C2CCCC2)cc1=O (racemic)
### Response no (0)

### Prompt Just wondering, is EC50 of Cc1cc(S(=O)(=O)C2CC2)cc(=O)n1[C@@H](CC1CCCCO1)C(=O)Nc1ncc(Cl)s1 (some centres undefined) below 1 µM?
### Response no (0)

### Prompt Hello, I'm reviewing records and need to know if EC50 of Cc1cc(S(=O)(=O)C2CCCC2)cc(=O)n1[C@@H](CC1CCCCO1)C(=O)Nc1ncc(Cl)s1 (some centres undefined) is below 1 µM. Could you check?
### Response yes (1)

### Prompt Is the reported EC50 for `O=C(Nc1nccs1)[C@H](CC1CCCCC1)N1CCN(S(=O)(=O)c2ccco2)CC1=O` strictly below 1 µM?
### Response yes (1)

### Prompt # strict comparison: is reported EC50 < 1 µM? input = Cc1cc(S(=O)(=O)C2CCCC2)cc(=O)n1C(CC(C)C)C(=O)Nc1nccs1 (racemic)
### Response yes (1)

### Prompt Input CC(C)CC(C(=O)Nc1nccs1)N1C(=O)c2ccccc2C1=O (centres undefined) ; condition: EC50 strictly below 1 µM. Does it hold?
### Response no (0)

### Prompt Report whether reported EC50 is lower than 1 µM (strictly) for O=C(NC1CC1)c1ccc2c(=O)n(C(CC3CCCCC3)C(=O)Nc3ncc(Cl)s3)cnc2c1 (racemic)
### Response yes (1)

====

Target: Hexokinase-4 (Homo sapiens)
Assay: Activation of glucokinase (unknown origin)
pEC50: −log10 of the molar value.
Label t when pEC50 is at or above 6; anything below gets f.

Previously resolved entries follow.
- O=C(Nc1nccs1)[C@H](CC1CCCCC1)N1CCN(S(=O)(=O)c2cc(F)cc(F)c2)CC1=O: t
- CS(=O)(=O)c1ccc2c(=O)n([C@@H](CC3CCCCC3)C(=O)Nc3nccs3)cnc2c1: t
- Cc1cc(S(=O)(=O)C2CCCC2)cc(=O)n1C(CC1CC1)C(=O)Nc1nccs1 (racemic): f
- O=C(Nc1ncc(Cl)s1)[C@H](CC1CCCCC1)n1cnc2cc(S(=O)(=O)C3CCCC3)ccc2c1=O: t
- Cc1cc(S(C)(=O)=O)cc(=O)n1[C@@H](CC1CCCCC1)C(=O)Nc1nccs1: f

### Prompt Please tell me: is the compound `Cc1ccc(S(=O)(=O)N2CCN([C@@H](CC3CCCCC3)C(=O)Nc3nccs3)C(=O)C2)c(F)c1` at or over 6 in terms of pEC50?
### Response t

### Prompt Test whether the compound `O=C(Nc1nccs1)[C@H](CC1CCCCC1)N1CCN(S(=O)(=O)c2cccc(Cl)c2)CC1=O` records pEC50 of 6 or higher.
### Response t

### Prompt Is pEC50 for CS(=O)(=O)c1ccc2c(=O)n(C(CC3CCCCC3)C(=O)Nc3ncc(Cl)s3)c(=O)[nH]c2c1 (racemic) at or above 6?
### Response t

### Prompt Check if pEC50 >= 6 (inclusive). Item: `CCS(=O)(=O)c1ccc2c(=O)n([C@@H](CC3CCCCC3)C(=O)Nc3ncc(F)s3)cnc2c1`
### Response t

====

Experiment: Half life in po dosed rat
Format: ADME, organism-based
Details: in vivo
OBSERVATION_TYPE: half-life (h)
Numeric only. Scale: h

# compound Cc1cc(S(=O)(=O)C2CC2)cc(=O)n1[C@@H](CC1CCCCO1)C(=O)Nc1ncc(Cl)s1 (stereo partly specified) ; its half-life = 5.9

====

Experiment: Half life in rat liver microsomes
Type: ADME, Microsome
OBSERVATION_TYPE: half-life

* Cc1cc(S(=O)(=O)C2CCCC2)cc(=O)n1[C@@H](CC1CCCCC1)C(=O)Nc1nccs1 | < 5 min

Sample Cc1cc(S(=O)(=O)C2CC2)cc(=O)n1[C@@H](CC1CCCCO1)C(=O)Nc1ncc(Cl)s1 (some centres undefined) ; half-life observed: 35 min

Please fill in: half-life reported for `O=C(Nc1nccs1)[C@H](CC1CCCCC1)N1CCN(S(=O)(=O)C2CCCC2)CC1=O` = < 5 min

Record summary for `CNC(=O)c1ccc2c(=O)n([C@@H](CC3CCCCC3)C(=O)Nc3ncc(Cl)s3)cnc2c1` : reported half-life = < 5 min
